This collection of values is drawn from patent US20110039721A1.

Tested on: mRNA expressed from the genes (A) to (D) in rat liver
Test: Behavior of genes (mRNA expression level, oligo-DNA microarray) in rat liver after 28-day oral administration
Format: in vivo
Settings: (C), Unigene Rn.106184, defined direction +; rat liver, oral once daily 28 days
MEASURE_NAME: Behavior of gene caused by administration of chemical substance, Gene No. 533

Please review the following examples before continuing.
MOLECULE	ASSAY_RESULT
CC(=N)S [TS030, Thioacetoamide]	+
CN(C)N=O [TS041, N-Nitrosodimethylamine]	−
c1ccc2ncccc2c1 [TS006, Quinoline]	−
CC(=O)Nc1ccc2c(c1)Cc1ccccc1-2 [TS043, 2-Acetylaminofluorene]	−
O=NN1CCCCC1 [TS042, N-Nitrosopiperidine]	+
Cc1ccc(N)cc1N [TS004, 2,4-Diaminotoluene]	−
c1ccoc1 [TS028, Furan]	+
CC(C)[N+](=O)[O-] [TS013, 2-Nitropropane]	+
CCN(CC)N=O [TS011, Diethylnitrosamine]	+
C1COCCO1 [TS027, 1,4-Dioxane]	+

## Input Please give the measured Behavior of gene caused by administration of chemical substance, Gene No. 533 for this molecule: CCOC(N)=O [TS054, Urethane]
## Output −

## Input I'd like to know its Behavior of gene caused by administration of chemical substance, Gene No. 533. The molecule in question is O=NN1CCOCC1 [TS014, N-Nitrosomorpholine]
## Output −

## Input Look up Behavior of gene caused by administration of chemical substance, Gene No. 533: COC(N)=O [TS029, Methyl carbamate]
## Output +

## Input I have this molecule here, CC(N)=O [TS067, Acetamide] , and I need its recorded Behavior of gene caused by administration of chemical substance, Gene No. 533.
## Output +

---

System: mRNA expressed from the genes (A) to (D) in rat liver
Experiment: Behavior of genes (mRNA expression level, oligo-DNA microarray) in rat liver after 28-day oral administration
Format: in vivo
Conditions: gene group (B), Unigene No. Rn.19329
MEASURE_NAME: Behavior of gene caused by administration of chemical substance, Gene No. 2045

Examples from the recorded data:
COMPOUND	ASSAY_RESULT
CC(O)CCl (stereo not shown)	+
O=C(c1ccccc1)C(O)c1ccccc1 (stereo not shown)	−
Nc1ccc([N+](=O)[O-])cc1N	−
Cc1ccc(N)cc1Cl	−
Nc1cc([N+](=O)[O-])ccc1C(=O)O	−

## Input Param item = OC[C@@H](O)[C@@H](O)[C@H](O)[C@H](O)CO ; retrieve measured Behavior of gene caused by administration of chemical substance, Gene No. 2045.
## Output −

## Input I'd like to know its Behavior of gene caused by administration of chemical substance, Gene No. 2045. The compound in question is O=C1O[C@H]([C@@H](O)CO)C(O)=C1O
## Output −

## Input Quick one: Behavior of gene caused by administration of chemical substance, Gene No. 2045 for O=[N+]([O-])c1cccc2ccccc12 ?
## Output −

## Input State the recorded Behavior of gene caused by administration of chemical substance, Gene No. 2045 for this entry: CCC[N+](=O)[O-]
## Output −

## Input Any idea what Behavior of gene caused by administration of chemical substance, Gene No. 2045 was measured for O=C1CCCCCN1 ?
## Output +
